For each record, write down the corresponding IC50.
biological target: KRAS G12D (Homo sapiens (Human), UniProt P01116+P62937, G12D); test: Ras-Raf (BRAF RBD) disruption / FRET / MOA assay, KRAS G12D; format: biochemical; settings: Ras-Raf disruption/FRET/MOA assay; class symbols; read-out: KRAS G12D FRET data IC50
Sequence (P01116-2 other isoform, or with tags, fused parts or gaps G12D): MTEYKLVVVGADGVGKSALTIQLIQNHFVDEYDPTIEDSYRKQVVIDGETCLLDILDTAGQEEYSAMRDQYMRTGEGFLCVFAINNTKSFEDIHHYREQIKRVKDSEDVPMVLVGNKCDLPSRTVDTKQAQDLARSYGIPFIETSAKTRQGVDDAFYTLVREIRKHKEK
Sequence (P62937 whole entry): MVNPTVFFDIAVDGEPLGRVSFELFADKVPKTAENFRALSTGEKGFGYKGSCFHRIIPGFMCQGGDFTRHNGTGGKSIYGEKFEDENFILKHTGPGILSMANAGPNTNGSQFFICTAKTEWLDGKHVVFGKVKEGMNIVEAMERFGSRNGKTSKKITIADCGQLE

Worked cases, IC50 given:
INSERT INTO assay_data (compound, assayed_target, result) VALUES
  ('C=CC(=O)N1CC[C@H](C(=O)N(C)[C@H](C(=O)N[C@H]2Cc3cc(O)cc(c3)-c3ccc4c(c3)c(c(-c3ccc(CN(C)C)c(COC)c3)n4CC)CC(C)(C)COC(=O)[C@@H]3CCCN(N3)C2=O)C(C)C)C1', 'KRAS G12D (Homo sapiens (Human), UniProt P01116+P62937, G12D)', '> 10 µM'),
  ('CCn1c(-c2cccnc2[C@H](C)OC)c2c3cc(ccc31)-c1csc(n1)C[C@H](NC(=O)[C@H](C(C)C)N1CC[C@@]3(CCN(C(=O)C#CC(C)(C)N(C)C)C3)C1=O)C(=O)N1CCC[C@H](N1)C(=O)OCC(C)(C)C2 (single isomer, unassigned)', 'KRAS G12D (Homo sapiens (Human), UniProt P01116+P62937, G12D)', '> 10 µM'),
  ('C=CC(=O)N1CC[C@H](C(=O)N(C)[C@H](C(=O)N[C@H]2Cc3cc(CF)cc(c3)-c3ccc4c(c3)c(c(-c3cccnc3[C@H](C)OC)n4CC)CC(C)(C)COC(=O)[C@@H]3CCCN(N3)C2=O)C(C)C)C1 (atropisomer, axis not shown) [Example A503]', 'KRAS G12D (Homo sapiens (Human), UniProt P01116+P62937, G12D)', '1 to 10 µM'),
  ('C=CC(=O)N1CC[C@H](C(=O)N(C)[C@H](C(=O)N[C@H]2Cc3cc(O)cc(c3)-c3ccc4c(c3)c(c(C3=C(COC)CCCC3)n4CC)CC(C)(C)COC(=O)[C@@H]3CCCN(N3)C2=O)C(C)C)C1', 'KRAS G12D (Homo sapiens (Human), UniProt P01116+P62937, G12D)', '> 10 µM'),
  ('C=CC(=O)N1CC[C@H](C(=O)N(C)[C@H](C(=O)N[C@@H]2C(=O)N3CCC[C@H](N3)C(=O)OCC(C)(C)Cc3c(-c4cncnc4)n(CC)c4ccc(cc34)-c3cccc(c3)[C@H]2O)C(C)C)C1', 'KRAS G12D (Homo sapiens (Human), UniProt P01116+P62937, G12D)', '> 10 µM'),
  ('CCn1c(-c2cccnc2[C@H](C)OC)c2c3cc(ccc31)-c1cccc(c1)C[C@H](NC(=O)[C@H](C(C)C)N(C)C(=O)[C@H]1CCN(C(=O)C#CC(C)(C)N3CCCC3)C1)C(=O)N1CCC[C@H](N1)C(=O)OCC(C)(C)C2 (atropisomer, axis not shown)', 'KRAS G12D (Homo sapiens (Human), UniProt P01116+P62937, G12D)', '1 to 10 µM');

Give me IC50 for each of these compounds, listed below.
1. CCn1c(-c2ccccc2CCOC)c2c3cc(ccc31)-c1cc(O)cc(c1)C[C@H](NC(=O)[C@H](C(C)C)N(C)C(=O)c1ccc(NC(=O)/C=C/CN(C)C)cn1)C(=O)N1CCC[C@H](N1)C(=O)OCC(C)(C)C2
2. C=CC(=O)N1CC[C@H](C(=O)N(C)[C@H](C(=O)N[C@H]2Cc3cc(O)cc(c3)-c3ccc4c(c3)c(c(-c3ccc(COC)cc3CN(C)C)n4CC)CC(C)(C)COC(=O)[C@@H]3CCCN(N3)C2=O)C(C)C)C1
3. C=CC(=O)N1CC(F)(C(=O)N(C)[C@H](C(=O)N[C@H]2Cc3cccc(c3)-c3ccc4c(c3)c(c(-c3cccnc3[C@H](C)OC)n4CC)CC(C)(C)COC(=O)[C@@H]3CCCN(N3)C2=O)C(C)C)C1 (atropisomer, axis not shown)

-- reply
1: 1 to 10 µM; 2: 1 to 10 µM; 3: 1 to 10 µM

----------
For each record, write down the corresponding pIC50.
target: NRAS WT (Homo sapiens (Human), UniProt P01111+P62937); assay: Ras-Raf (BRAF RBD) disruption / FRET / MOA assay, NRAS WT; format: biochemical; conditions: read-out: IC50* NRAS WT FRET data
Sequence (P01111 whole entry, one chain of several): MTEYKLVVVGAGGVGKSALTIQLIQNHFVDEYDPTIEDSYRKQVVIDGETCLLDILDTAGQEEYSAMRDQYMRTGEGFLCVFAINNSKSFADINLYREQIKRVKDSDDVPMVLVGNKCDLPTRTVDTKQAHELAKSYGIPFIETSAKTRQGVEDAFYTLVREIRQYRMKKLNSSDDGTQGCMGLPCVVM
pIC50: −log10 of the molar value.

Worked cases, pIC50 given:
INSERT INTO results (compound, result) VALUES
  ('C=CC(=O)N1CC[C@H](C(=O)N(C)[C@H](C(=O)N[C@H]2Cc3cc(O)cc(c3)-c3ccc4c(c3)c(c(-c3cccnc3[C@@H](OC)C3CC3)n4CC)CC(C)(C)COC(=O)[C@@H]3CCCN(N3)C2=O)C(C)C)C1 (atropisomer, axis not shown)', '6.00 to 7.00'),
  ('CO[C@@H](C)c1ncccc1-c1c2c3cc(ccc3n1CC(F)(F)F)N1CCO[C@@H](C[C@H](NC(=O)[C@@H](COC3CN(C(=O)C#CC(C)(C)N(C)C)C3)C(C)C)C(=O)N3CCC[C@H](N3)C(=O)OCC(C)(C)C2)C1 (atropisomer, axis not shown)', '5.00 to 6.00'),
  ('C=CC(=O)N1CCC2(CCCN(C(=O)N(C)[C@H](C(=O)N[C@H]3Cc4nc(cs4)-c4ccc5c(c4)c(c(-c4cccnc4[C@H](C)OC)n5CC)CC(C)(C)COC(=O)[C@@H]4CCCN(N4)C3=O)C(C)C)C2)CC1 (atropisomer, axis not shown)', '6.00 to 7.00');

Give me pIC50 for each of these compounds, listed below.
1. C=CC(=O)N(C)[C@H]1C[C@H](N(C)C(=O)N(C)[C@H](C(=O)N[C@H]2Cc3nc(cs3)-c3ccc4c(c3)c(c(-c3cccnc3[C@H](C)OC)n4CC)CC(C)(C)COC(=O)[C@@H]3CCCN(N3)C2=O)C(C)C)C1 (atropisomer, axis not shown)
2. CC#CC(=O)N1CC(N(C)C(=O)N(C)[C@H](C(=O)N[C@H]2Cc3nc(cs3)-c3ccc4c(c3)c(c(-c3cccnc3[C@H](C)OC)n4CC)CC(C)(C)COC(=O)[C@@H]3CCCN(N3)C2=O)C(C)C)C1 (atropisomer, axis not shown)
3. CCn1c(-c2cccnc2[C@H](C)OC)c2c3cc(ccc31)C1CCCN(C1)C[C@H](NC(=O)[C@@H](COC1CN(C(=O)C#CC(C)(C)N(C)C)C1)C(C)C)C(=O)N1CCC[C@H](N1)C(=O)OCC(C)(C)C2
4. C=CC(=O)NC[C@H]1CCN1C(=O)N(C)[C@H](C(=O)N[C@H]1Cc2nc(cs2)-c2ccc3c(c2)c(c(-c2cccnc2[C@H](C)OC)n3CC)CC(C)(C)COC(=O)[C@@H]2CCCN(N2)C1=O)C(C)C (atropisomer, axis not shown)
5. CCn1c(-c2cccnc2[C@H](C)OC)c2c3cc(ccc31)-c1cccc(c1)C[C@H](NC(=O)[C@@H](COC1CN(C(=O)C#CC(C)(C)N(C)CCO)C1)C(C)C)C(=O)N1CCC[C@H](N1)C(=O)OCC(C)(C)C2 (atropisomer, axis not shown)

-- reply
["7.00 to 8.00", "6.00 to 7.00", "< 5.00", "6.00 to 7.00", "< 5.00"]

----------
For each record, write down the corresponding pIC50.
target: KRAS G13D (Homo sapiens (Human), UniProt P01116+P62937, G13D); assay: Ras-Raf (BRAF RBD) disruption / FRET / MOA assay, KRAS G13D; type: biochemical; conditions: read-out: IC50* KRAS G13D FRET data
Sequence (P01116-2 other isoform, or with tags, fused parts or gaps G13D, one chain of several): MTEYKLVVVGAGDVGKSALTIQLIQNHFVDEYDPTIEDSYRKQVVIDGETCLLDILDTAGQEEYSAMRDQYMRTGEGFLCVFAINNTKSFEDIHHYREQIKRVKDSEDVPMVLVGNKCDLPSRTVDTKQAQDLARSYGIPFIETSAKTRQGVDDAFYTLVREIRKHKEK
pIC50: −log10 of the molar value.

Give me pIC50 for each of these compounds, listed below.
1. C=CC(=O)N1CC2(COCCN2C(=O)N(C)[C@H](C(=O)N[C@H]2Cc3nc(cs3)-c3ccc4c(c3)c(c(-c3cccnc3[C@H](C)OC)n4CC)CC(C)(C)COC(=O)[C@@H]3CCCN(N3)C2=O)C(C)C)C1 (atropisomer, axis not shown)
2. C=CC(=O)N1C[C@@H](C)[C@H](N(C)C(=O)N(C)[C@H](C(=O)N[C@H]2Cc3nc(cs3)-c3ccc4c(c3)c(c(-c3cccnc3[C@H](C)OC)n4CC)CC(C)(C)COC(=O)[C@@H]3CCCN(N3)C2=O)C(C)C)C1 (atropisomer, axis not shown)

-- reply
1: < 5.00; 2: 5.00 to 6.00

----------
target: NRAS Q61K (Homo sapiens (Human), UniProt P01111+P62937, Q61K); assay: Ras-Raf (BRAF RBD) disruption / FRET / MOA assay, NRAS Q61K; assay type: biochemical; details: NRAS Q61K; Ras-Raf disruption/FRET/MOA assay; read-out: IC50* NRAS Q61K FRET data
Sequence (P01111 whole entry Q61K): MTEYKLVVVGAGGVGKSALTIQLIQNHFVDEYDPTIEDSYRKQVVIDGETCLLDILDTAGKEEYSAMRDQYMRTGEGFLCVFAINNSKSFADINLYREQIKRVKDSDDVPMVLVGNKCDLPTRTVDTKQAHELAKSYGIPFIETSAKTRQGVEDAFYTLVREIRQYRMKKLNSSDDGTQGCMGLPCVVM
Sequence (P62937 whole entry): as the sequence (P62937 whole entry) above
pIC50: −log10 of the molar value.
For each record, write down the corresponding pIC50.

INSERT INTO measurements (compound, result) VALUES
  ('C=CC(=O)N1C[C@@H](C)N(C(=O)N(C)[C@H](C(=O)N[C@H]2Cc3nc(cs3)-c3ccc4c(c3)c(c(-c3cccnc3[C@H](C)OC)n4CC)CC(C)(C)COC(=O)[C@@H]3CCCN(N3)C2=O)C(C)C)[C@@H](C)C1 (atropisomer, axis not shown)', '7.00 to 8.00');

The record that follows has no pIC50 shown yet.
-- ask State its pIC50 for this compound: C=CC(=O)N1CCO[C@@]2(CCN(C(=O)N(C)[C@H](C(=O)N[C@H]3Cc4nc(cs4)-c4ccc5c(c4)c(c(-c4cccnc4[C@H](C)OC)n5CC(F)(F)F)CC(C)(C)COC(=O)[C@@H]4CCCN(N4)C3=O)C(C)C)C2)C1 (atropisomer, axis not shown)
-- reply 7.00 to 8.00
